Target: p38α activated, mitogen-activated protein kinase-activated protein kinase 2 (MAPKAP-K2 or MK2) enzyme (Homo sapiens (Human), UniProt P49137)
Sequence (P49137 whole entry): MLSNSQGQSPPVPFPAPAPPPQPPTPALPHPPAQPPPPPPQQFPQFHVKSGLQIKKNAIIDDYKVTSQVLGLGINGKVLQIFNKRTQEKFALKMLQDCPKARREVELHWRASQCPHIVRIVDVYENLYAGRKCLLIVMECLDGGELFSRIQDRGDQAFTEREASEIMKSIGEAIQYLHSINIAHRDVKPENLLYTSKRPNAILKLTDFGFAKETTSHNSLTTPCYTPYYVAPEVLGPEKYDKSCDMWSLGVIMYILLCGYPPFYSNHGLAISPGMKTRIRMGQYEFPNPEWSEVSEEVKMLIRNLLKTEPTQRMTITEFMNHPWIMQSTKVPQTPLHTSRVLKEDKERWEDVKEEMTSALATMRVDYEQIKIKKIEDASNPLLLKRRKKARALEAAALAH
Assay: MK2 Omnia continuous-read kinase assay for compound potency
Format: biochemical
Conditions: [MK-2]=0.4 nM, [ATP]=10 μM, [ST3-Sox]=10 μM; read-out: MK2 IC50
Let's look at some compounds and their measured IC50.

The examples below pair each entry with its known result.
chemical structure: C[C@@H]1CNc2c(sc3ccc4nc(N(C)c5cc(F)ncn5)ccc4c23)C(=O)N1
readout label: IC50
assay result: < 0.1 µM
--
chemical structure: C[C@@H]1CNc2c(sc3ccc4nc(Oc5nc(Cl)ncc5COC5(C)COC5)ccc4c23)C(=O)N1
readout label: IC50
assay result: < 0.1 µM

Name the reported IC50 value associated with the compound `CO[C@H]1CCCN(Cc2cnc(Cl)nc2Oc2ccc3c(ccc4sc5c(c43)NC[C@@H](C)NC5=O)n2)C1`
0.101 to 0.5 µM

Then `C[C@@H]1CNc2c(sc3ccc4nc(Oc5nc(Cl)ncc5CN5CCC[C@@H]5C)ccc4c23)C(=O)N1` ?
< 0.1 µM

Then `C[C@@H]1CNc2c(sc3ccc4nc(Oc5cnnc(Cl)c5)ccc4c23)C(=O)N1` ?
< 0.1 µM

Then `C[C@@H]1CNc2c(sc3ccc4nc(Oc5nc(Cl)ncc5-c5cccnc5)ccc4c23)C(=O)N1` ?
< 0.1 µM

Then `C[C@@H]1CNc2c(sc3ccc4nc(Oc5nc(Cl)nc6c5CS(=O)(=O)CC6)ccc4c23)C(=O)N1` ?
< 0.1 µM

Then `CCN1CCN(Cc2cnc(Cl)nc2Oc2ccc3c(ccc4sc5c(c43)NC[C@@H](C)NC5=O)n2)CC1` ?
0.101 to 0.5 µM

Then `C[C@@H]1CNc2c(sc3ccc4nc(Oc5nc(F)nc6c5COC6)ccc4c23)C(=O)N1` ?
< 0.1 µM

Then `CCOC(=O)c1cnc(SC)nc1Nc1ccc2c(ccc3sc4c(c32)NC[C@@H](C)NC4=O)n1` ?
0.501 to 0.999 µM
